Data origin, for the record: patent US20260193264A1

- MEASUREMENT TARGET: HiBit-BRG1 fusion protein in stable HeLa cell line expressing HiBit-BRG1 and LgBit (Homo sapiens)
- Construct: expressed in transfected cells
- Sequence (P51532 whole entry, the tested form may be a part): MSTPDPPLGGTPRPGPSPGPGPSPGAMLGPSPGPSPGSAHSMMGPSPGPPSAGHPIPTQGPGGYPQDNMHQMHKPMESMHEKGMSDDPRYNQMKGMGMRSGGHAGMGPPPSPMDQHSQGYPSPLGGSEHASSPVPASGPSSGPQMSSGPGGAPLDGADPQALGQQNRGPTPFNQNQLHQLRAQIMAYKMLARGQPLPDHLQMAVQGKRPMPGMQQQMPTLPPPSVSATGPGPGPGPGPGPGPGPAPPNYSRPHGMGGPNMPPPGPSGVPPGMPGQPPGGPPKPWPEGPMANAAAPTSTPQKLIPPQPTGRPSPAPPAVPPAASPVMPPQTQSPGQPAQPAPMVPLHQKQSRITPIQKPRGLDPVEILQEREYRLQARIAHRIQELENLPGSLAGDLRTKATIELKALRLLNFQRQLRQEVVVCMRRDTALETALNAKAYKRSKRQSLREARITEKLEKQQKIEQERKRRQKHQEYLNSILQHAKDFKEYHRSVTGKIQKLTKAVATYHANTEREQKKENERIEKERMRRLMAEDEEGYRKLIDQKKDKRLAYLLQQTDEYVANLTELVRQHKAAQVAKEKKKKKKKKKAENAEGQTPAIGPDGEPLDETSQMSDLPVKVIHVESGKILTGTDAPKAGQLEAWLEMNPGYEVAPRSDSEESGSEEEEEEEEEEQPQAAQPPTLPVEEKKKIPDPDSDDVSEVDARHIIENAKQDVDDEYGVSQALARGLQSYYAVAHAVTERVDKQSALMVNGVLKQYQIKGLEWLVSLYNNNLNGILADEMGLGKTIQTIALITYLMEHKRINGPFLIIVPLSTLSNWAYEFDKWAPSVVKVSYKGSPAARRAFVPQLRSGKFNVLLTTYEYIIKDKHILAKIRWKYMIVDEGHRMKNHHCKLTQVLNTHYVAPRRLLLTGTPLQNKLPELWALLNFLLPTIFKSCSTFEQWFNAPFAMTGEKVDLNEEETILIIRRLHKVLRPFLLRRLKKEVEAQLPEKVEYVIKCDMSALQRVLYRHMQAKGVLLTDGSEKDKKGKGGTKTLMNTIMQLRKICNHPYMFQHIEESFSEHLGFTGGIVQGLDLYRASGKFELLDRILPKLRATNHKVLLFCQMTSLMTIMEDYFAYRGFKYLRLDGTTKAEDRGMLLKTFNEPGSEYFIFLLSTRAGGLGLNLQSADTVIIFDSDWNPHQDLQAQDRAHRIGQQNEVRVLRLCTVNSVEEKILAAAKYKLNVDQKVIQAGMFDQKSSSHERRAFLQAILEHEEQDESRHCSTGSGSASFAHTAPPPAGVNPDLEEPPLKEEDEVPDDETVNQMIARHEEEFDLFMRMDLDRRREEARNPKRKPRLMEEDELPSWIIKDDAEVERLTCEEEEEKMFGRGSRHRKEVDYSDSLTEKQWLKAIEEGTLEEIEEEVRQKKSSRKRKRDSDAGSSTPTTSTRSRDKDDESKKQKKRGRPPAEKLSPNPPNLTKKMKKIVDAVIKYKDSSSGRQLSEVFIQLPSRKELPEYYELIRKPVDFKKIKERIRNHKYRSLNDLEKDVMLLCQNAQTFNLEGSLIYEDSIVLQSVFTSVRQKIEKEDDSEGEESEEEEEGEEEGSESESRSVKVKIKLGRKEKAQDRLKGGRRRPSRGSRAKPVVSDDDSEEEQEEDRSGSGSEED
- PROCEDURE SUMMARY: HiBiT-BRG1 cell-based degradation assay (Nano-Glo HiBiT, 24 h)
- MEASUREMENT PARAMETERS: HeLa HiBit-BRG1/LgBit cells, read-out: BRMG1 HiBit Degradation IC50
Entries annotated with measured DC50

Below, 4 molecules whose answers are already recorded.
| MOLECULE | DC50 |
| --- | --- |
| Cc1cc2cc(-c3ccccc3O)nnc2cc1N1CC2(CN(c3cc([C@H](C(=O)N4C[C@H](O)C[C@H]4C(=O)N[C@@H](C)c4ccc(-c5scnc5C)cc4)C(C)C)on3)C2)C1 | < 10 nM |
| Cc1ncsc1-c1ccc([C@H](C)NC(=O)[C@@H]2C[C@@H](O)CN2C(=O)[C@@H](c2cc(N3CCC4(CC[C@H](c5ccc6cc(-c7ccccc7O)nnc6c5)C4)CC3)no2)C(C)C)cc1 | > 10 nM |
| Cc1nc(N2CCC(c3ccc4nnc(-c5ccccc5O)cc4c3)CC2)ccc1-c1cc([C@H](C(=O)N2C[C@H](O)C[C@H]2C(=O)N[C@@H](C)c2ccc(-c3scnc3C)cc2)C(C)C)on1 | > 100 nM |
| Cc1ncsc1-c1ccc([C@H](C)NC(=O)[C@@H]2C[C@@H](O)CN2C(=O)[C@@H](c2cc(N3CCN4CCN(c5ccc6cc(-c7ccccc7O)nnc6c5)CC4C3)no2)C(C)C)cc1 (stereo partly shown) | < 10 nM |

Incoming: Consider the molecule shown here: `Cc1ncsc1-c1ccc([C@H](C)NC(=O)[C@@H]2C[C@@H](O)CN2C(=O)[C@@H](c2cc(N3CC4(CCN(c5ccc6cc(-c7ccccc7O)nnc6c5)C4)C3)no2)C(C)C)cc1` What is its recorded DC50?
Outgoing: < 10 nM

Incoming: Consider the molecule shown here: Cc1ncsc1-c1ccc([C@H](C)NC(=O)[C@@H]2C[C@@H](O)CN2C(=O)C(C(C)C)n2cc(N3CCCC(CN4CCN(c5ccc6nnc(-c7ccccc7O)cc6c5)CC4)C3)nn2)cc1 (stereo partly shown) What is its recorded DC50?
Outgoing: > 10 nM

Incoming: Consider the molecule shown here: `C#Cc1cc2nnc(-c3ccccc3O)cc2cc1N1CC2(CN(c3cc([C@H](C(=O)N4C[C@H](O)C[C@H]4C(=O)N[C@@H](C)c4ccc(-c5scnc5C)cc4)C(C)C)on3)C2)C1` What is its recorded DC50?
Outgoing: < 10 nM

Incoming: Consider the molecule shown here: `Cc1ncsc1-c1ccc([C@H](C)NC(=O)[C@@H]2C[C@@H](O)CN2C(=O)[C@@H](c2cc(N3CCC4(CC3)CC(N(C)c3ccc5cc(-c6ccccc6O)nnc5c3)C4)no2)C(C)C)cc1` What is its recorded DC50?
Outgoing: < 10 nM

Incoming: Consider the molecule shown here: `Cc1ncsc1-c1ccc([C@H](C)NC(=O)[C@@H]2C[C@@H](O)CN2C(=O)[C@@H](c2cc(N3CCC4(CC3)CC(c3ccc5nnc(-c6ccccc6O)cc5c3)C4)no2)C(C)C)cc1` What is its recorded DC50?
Outgoing: < 10 nM

Incoming: Consider the molecule shown here: `Cc1ncsc1-c1ccc([C@H](C)NC(=O)[C@@H]2C[C@@H](O)CN2C(=O)[C@H](C2CCC2)n2cc(N3CC4(CC(c5ccc6cc(-c7ccccc7O)nnc6c5)C4)C3)nn2)cc1` What is its recorded DC50?
Outgoing: > 10 nM

Incoming: Consider the molecule shown here: Cc1ncsc1-c1ccc([C@H](C)NC(=O)[C@@H]2C[C@@H](O)CN2C(=O)[C@@H](c2cc(N3CCC4(CCN(c5ccc6nnc(-c7ccccc7O)cc6c5)C4)C3)no2)C(C)C)cc1 (stereo partly shown) What is its recorded DC50?
Outgoing: > 10 nM

Incoming: Consider the molecule shown here: `Cc1ncsc1-c1ccc([C@H](C)NC(=O)[C@@H]2C[C@@H](O)CN2C(=O)[C@H](C(C)C)n2cc(C3CC4(C3)CN(c3ccc5cc(-c6ccccc6O)nnc5c3)C4)nn2)cc1` What is its recorded DC50?
Outgoing: < 10 nM

Incoming: Consider the molecule shown here: `Cc1ncsc1-c1ccc([C@H](C)NC(=O)[C@@H]2C[C@@H](O)CN2C(=O)[C@H](C(C)C)n2cc(-c3ccc4nnc(-c5ccccc5O)cc4c3)nn2)cc1` What is its recorded DC50?
Outgoing: < 10 nM

Incoming: Consider the molecule shown here: `Cc1ncsc1-c1ccc([C@H](C)NC(=O)[C@@H]2C[C@@H](O)CN2C(=O)[C@@H](c2cc(-c3cnc(N4CC(c5ccc6nnc(-c7ccccc7O)cc6c5)C4)nc3)no2)C(C)C)cc1` What is its recorded DC50?
Outgoing: > 10 nM
